Kindly state pIC50 for each of the entries shown.
Target desc: ATR kinase (Homo sapiens (Human))
Sequence (Q13535 whole entry): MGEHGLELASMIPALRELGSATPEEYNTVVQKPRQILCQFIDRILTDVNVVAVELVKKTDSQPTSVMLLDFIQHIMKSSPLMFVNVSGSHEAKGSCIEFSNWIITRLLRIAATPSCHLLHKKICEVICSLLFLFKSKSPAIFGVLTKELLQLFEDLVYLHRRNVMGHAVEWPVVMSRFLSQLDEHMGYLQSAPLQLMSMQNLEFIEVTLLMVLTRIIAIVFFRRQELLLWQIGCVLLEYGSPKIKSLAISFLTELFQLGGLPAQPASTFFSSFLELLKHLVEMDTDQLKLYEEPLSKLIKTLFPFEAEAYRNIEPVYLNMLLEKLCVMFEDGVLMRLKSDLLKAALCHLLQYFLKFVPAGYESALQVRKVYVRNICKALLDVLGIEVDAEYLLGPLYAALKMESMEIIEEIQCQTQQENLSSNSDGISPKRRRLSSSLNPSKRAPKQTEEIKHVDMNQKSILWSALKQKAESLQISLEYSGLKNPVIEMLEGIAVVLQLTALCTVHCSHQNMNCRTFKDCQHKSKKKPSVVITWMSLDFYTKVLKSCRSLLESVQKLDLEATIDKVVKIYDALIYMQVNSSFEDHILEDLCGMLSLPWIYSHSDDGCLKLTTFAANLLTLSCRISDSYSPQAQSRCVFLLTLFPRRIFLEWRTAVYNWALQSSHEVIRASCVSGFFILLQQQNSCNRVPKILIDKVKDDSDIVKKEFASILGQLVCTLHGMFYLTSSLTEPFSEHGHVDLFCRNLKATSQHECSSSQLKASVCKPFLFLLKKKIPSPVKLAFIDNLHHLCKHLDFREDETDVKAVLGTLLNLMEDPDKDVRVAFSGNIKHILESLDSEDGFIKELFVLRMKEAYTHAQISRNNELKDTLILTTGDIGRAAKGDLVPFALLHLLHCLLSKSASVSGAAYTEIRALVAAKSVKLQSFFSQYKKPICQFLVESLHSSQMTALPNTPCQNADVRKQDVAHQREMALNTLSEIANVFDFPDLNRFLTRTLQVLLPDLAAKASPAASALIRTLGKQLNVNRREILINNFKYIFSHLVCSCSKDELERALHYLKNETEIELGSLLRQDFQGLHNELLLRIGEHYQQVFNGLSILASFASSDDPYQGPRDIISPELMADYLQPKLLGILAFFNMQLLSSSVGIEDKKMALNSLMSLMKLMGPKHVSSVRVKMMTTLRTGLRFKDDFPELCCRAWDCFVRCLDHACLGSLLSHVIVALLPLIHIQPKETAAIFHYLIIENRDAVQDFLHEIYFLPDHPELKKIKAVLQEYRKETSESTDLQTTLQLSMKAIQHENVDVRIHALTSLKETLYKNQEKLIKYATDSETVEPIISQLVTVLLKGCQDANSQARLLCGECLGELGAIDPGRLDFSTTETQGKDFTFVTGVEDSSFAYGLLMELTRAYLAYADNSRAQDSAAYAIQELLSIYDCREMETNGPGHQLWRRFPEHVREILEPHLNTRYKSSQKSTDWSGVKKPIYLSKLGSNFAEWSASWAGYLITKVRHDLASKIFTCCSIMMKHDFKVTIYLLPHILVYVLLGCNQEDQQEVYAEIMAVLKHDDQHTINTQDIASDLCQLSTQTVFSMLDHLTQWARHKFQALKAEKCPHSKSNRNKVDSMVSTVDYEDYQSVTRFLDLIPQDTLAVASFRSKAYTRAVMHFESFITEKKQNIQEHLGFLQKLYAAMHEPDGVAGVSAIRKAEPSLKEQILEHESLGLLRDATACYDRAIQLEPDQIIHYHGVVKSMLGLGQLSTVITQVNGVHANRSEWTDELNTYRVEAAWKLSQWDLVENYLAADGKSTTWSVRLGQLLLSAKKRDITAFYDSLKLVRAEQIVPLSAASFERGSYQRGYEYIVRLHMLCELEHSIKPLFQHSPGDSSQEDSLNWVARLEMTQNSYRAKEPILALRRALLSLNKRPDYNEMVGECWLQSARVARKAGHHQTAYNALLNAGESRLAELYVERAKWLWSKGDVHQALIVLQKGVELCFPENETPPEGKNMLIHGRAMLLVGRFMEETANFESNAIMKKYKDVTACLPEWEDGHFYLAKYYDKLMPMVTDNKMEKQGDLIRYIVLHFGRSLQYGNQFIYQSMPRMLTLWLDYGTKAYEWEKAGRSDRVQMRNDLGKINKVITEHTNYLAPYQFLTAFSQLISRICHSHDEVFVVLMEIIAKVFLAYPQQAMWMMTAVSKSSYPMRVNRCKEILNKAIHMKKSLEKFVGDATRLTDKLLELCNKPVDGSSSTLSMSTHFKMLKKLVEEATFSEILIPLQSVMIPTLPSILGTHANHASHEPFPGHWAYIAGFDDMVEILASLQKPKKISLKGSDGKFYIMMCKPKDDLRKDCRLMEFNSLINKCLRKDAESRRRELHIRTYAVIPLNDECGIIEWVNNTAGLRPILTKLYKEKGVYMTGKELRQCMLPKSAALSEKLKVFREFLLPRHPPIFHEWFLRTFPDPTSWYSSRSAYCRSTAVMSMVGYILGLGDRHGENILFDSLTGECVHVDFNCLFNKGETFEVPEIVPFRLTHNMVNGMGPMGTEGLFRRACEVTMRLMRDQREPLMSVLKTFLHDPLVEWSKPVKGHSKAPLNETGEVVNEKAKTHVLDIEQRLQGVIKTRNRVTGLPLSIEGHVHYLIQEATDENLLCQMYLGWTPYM
Sequence (Q8WXE1 whole entry partner): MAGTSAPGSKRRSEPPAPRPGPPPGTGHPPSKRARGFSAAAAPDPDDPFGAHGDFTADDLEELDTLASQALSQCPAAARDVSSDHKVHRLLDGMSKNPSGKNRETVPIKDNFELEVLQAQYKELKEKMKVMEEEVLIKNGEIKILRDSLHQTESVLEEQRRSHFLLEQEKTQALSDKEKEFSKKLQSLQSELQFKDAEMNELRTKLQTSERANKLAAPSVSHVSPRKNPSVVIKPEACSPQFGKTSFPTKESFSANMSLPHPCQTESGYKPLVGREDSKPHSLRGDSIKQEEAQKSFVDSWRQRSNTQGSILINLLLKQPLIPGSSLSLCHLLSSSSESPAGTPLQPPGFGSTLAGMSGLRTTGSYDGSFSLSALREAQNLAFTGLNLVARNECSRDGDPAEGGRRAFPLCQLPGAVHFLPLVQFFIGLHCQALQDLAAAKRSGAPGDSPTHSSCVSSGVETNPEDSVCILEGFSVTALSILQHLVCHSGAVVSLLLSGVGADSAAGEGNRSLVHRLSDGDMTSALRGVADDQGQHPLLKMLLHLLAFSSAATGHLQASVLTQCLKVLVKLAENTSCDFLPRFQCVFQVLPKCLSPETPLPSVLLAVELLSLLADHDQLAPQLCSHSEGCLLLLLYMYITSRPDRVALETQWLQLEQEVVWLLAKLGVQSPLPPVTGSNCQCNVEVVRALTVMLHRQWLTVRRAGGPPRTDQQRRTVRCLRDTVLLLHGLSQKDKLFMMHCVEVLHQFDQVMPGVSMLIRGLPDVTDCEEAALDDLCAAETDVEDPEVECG
Procedure text: Assay b) ATR cellular potency assay (pChk1 Ser345 in HT29 cells treated with 4NQO)
Particulars: HT29 cells, pChk1 Ser345 after 4NQO; geometric mean where repeated; read-out: Assay b) ATR Cell IC50
pIC50: −log10 of the molar value.

Sample answers from the record:
CO[C@@H]1CC[C@@H](n2c(=O)n(C)c3cnc4ccc(-c5ccc(OCCCN(C)C)nc5F)cc4c32)C1	< 4.54
CN(C)CCCOc1ccc(-c2ccc3ncc4c(c3c2)n([C@H]2CCCOC2)c(=O)n4C)c(F)n1	< 4.52
CO[C@H]1C[C@@H](n2c(=O)n(C)c3cnc4ccc(-c5ccc(OCCCN(C)C)nc5F)cc4c32)C1	< 4.52

The record that follows has no pIC50 shown yet.
INPUT: Name the reported pIC50 value associated with the molecule CO[C@H]1CC[C@H](n2c(=O)n(C)c3cnc4ccc(-c5ccc(OCCCN(C)C)nc5F)cc4c32)C1
OUTPUT: < 4.52

// data source = patent US9428503B2
